Items are presented alongside their recorded melting point.
property: melting point

[[record]]
molsmiles = "O=C1CC[C@H](C(=O)O)O1"
assayresult = "69 to 72 °C"

[[record]]
molsmiles = "Cc1ccc(S(=O)(=O)n2cc(C=CC(=O)O)c3ccccc32)cc1"
assayresult = "238 to 241 °C"

[[record]]
molsmiles = "FC(F)(F)C(F)(F)C(F)(F)C(F)(C(F)(F)F)C(F)(F)F"
assayresult = "-119 °C"

[[record]]
molsmiles = "CC(=O)OC(C)=O"
assayresult = "-73 °C"

[[record]]
molsmiles = "N#Cc1cc(Cl)cc(Cl)c1N"
assayresult = "120 to 126 °C"

[[record]]
molsmiles = "Oc1c(F)c(F)c(F)c2c(F)c(F)c(F)c(F)c12"
assayresult = "103 to 107 °C"

[[record]]
molsmiles = "Cc1nc2scc(-c3ccccc3)c2c(=O)n1NC(=O)c1ccc(Cl)cc1Cl"
assayresult = "290 to 292 °C"

